- System: wild-type (WT) K-12-Pore
- test-method-notes: microbe, parasite or virus in culture
- Assay type: cell-based, Escherichia coli
- conditions: Table 14A; porinated; technical duplicate
# maps each entry to its Minimum inhibitory concentration, K-12 (WT)-Pore
# number only, unit µg/mL dropped from output

N#CC(C#N)=NNc1ccc(-n2ccc(C(F)(F)F)n2)cc1; 160
CC(C)(C)c1cc(C(=O)NNC(=O)Nc2cccc3ccccc23)n(Cc2ccc(F)cc2)n1; 320
O=C(Nc1cccc(Oc2c(F)c(F)c(F)c(F)c2F)c1)c1ccccc1; 320

N#CC(=NNc1cccc(C(F)(F)F)c1)C(=O)c1ccsc1 has a reported Minimum inhibitory concentration, K-12 (WT)-Pore of 320

// field: Minimum inhibitory concentration, K-12 (WT)-Pore; key: O=C(Nc1ccc(C(F)(F)F)cc1)Nc1ccc(C(F)(F)F)cc1 ; value = 320

Reported Minimum inhibitory concentration, K-12 (WT)-Pore for O=C(Nc1ccccc1)Nc1ccc(Br)c(C(F)(F)F)c1 was 320

The origin of these recorded values is patent US20230407243A1.
